These measurements were taken from ChEMBL document CHEMBL3822398.

# key: entry, value: MFC
Test system: Candida albicans
test-protocol: Fungicidal activity against Candida albicans MTCC 3017 incubated for 24 hrs
Assay type: functional
protocol-conditions: MTCC 3017, 24 h
property: MFC (µg/mL)

1. CCCCCCCCC[C@@H](O)[C@H](CO)n1cc(-c2ccccc2)nn1: 125
2. CCCCCCCCC[C@@H](O)[C@H](CO)n1cc(-c2cccc(O)c2)nn1: 7.8
3. CCCCCCCCC[C@@H](O)[C@@H](N)CO: 31.2
4. Clc1ccc(COC(Cn2ccnc2)c2ccc(Cl)cc2Cl)c(Cl)c1 (centres undefined): 7.8

====

Test system: Candida albicans
test-protocol: Antifungal activity against Candida albicans MTCC 4748 incubated for 24 hrs at 30 degC by well diffusion method
Type: functional
protocol-conditions: MTCC 4748, 24 h
MIC: recorded values
property: MIC (µg/mL)

1) CCCCCCCCC[C@@H](O)[C@@H](N)CO: 31.2
2) Clc1ccc(COC(Cn2ccnc2)c2ccc(Cl)cc2Cl)c(Cl)c1 (centres undefined): 7.8
3) CCCCCCCCC[C@@H](O)[C@H](CO)n1cc(-c2cccc(O)c2)nn1: 7.8
4) CCCCCCCCC[C@@H](O)[C@H](CO)n1cc(-c2ccccc2)nn1: 125

====

Measured MIC of individual entries
System: Pseudomonas aeruginosa
test-protocol: Antibacterial activity against Pseudomonas aeruginosa MTCC 2453 incubated for 24 hrs at 37 degC by well diffusion method
Assay type: functional
protocol-conditions: MTCC 2453, 24 h
property: MIC

1. CCCCCCCCC[C@@H](O)[C@@H](N)CO: > 250 µg/mL
2. CCCCCCCCC[C@@H](O)[C@H](CO)n1cc(CCCCCC)nn1: > 250 µg/mL
3. CCCCCCCCC[C@@H](O)[C@H](CO)n1cc(-c2ccc3cc(OC)ccc3c2)nn1: > 250 µg/mL
4. CCCCCCCCC[C@@H](O)[C@H](CO)n1cc(CCO)nn1: > 250 µg/mL
5. CCCCCCCCC[C@@H](O)[C@H](CO)n1cc(-c2ccccc2)nn1: > 250 µg/mL
6. CCCCCCCCC[C@@H](O)[C@H](CO)n1cc(-c2cccc(O)c2)nn1: > 250 µg/mL
7. CCCCCCCCC[C@@H](O)[C@H](CO)n1cc(CO)nn1: > 250 µg/mL
8. O=C(O)c1cn(C2CC2)c2cc(N3CCNCC3)c(F)cc2c1=O: 0.9 µg/mL

====

Tested on: Candida albicans
test-protocol: Antifungal activity against Candida albicans MTCC 3958 incubated for 24 hrs at 30 degC by well diffusion method
Format: functional
protocol-conditions: MTCC 3958, 24 h
property: MIC (µg/mL)

1) CCCCCCCCC[C@@H](O)[C@@H](N)CO: 15.6
2) CCCCCCCCC[C@@H](O)[C@H](CO)n1cc(-c2ccccc2)nn1: 62.5
3) CCCCCCCCC[C@@H](O)[C@H](CO)n1cc(-c2cccc(O)c2)nn1: 15.6
4) Clc1ccc(COC(Cn2ccnc2)c2ccc(Cl)cc2Cl)c(Cl)c1 (centres undefined): 7.8

====

Test system: Candida albicans
test-protocol: Fungicidal activity against Candida albicans MTCC 854 incubated for 24 hrs
Type: functional
protocol-conditions: MTCC 854, 24 h
Quick list: MFC per entry.
property: MFC (µg/mL)

1. Clc1ccc(COC(Cn2ccnc2)c2ccc(Cl)cc2Cl)c(Cl)c1 (centres undefined) [MICONAZOLE]: 15.6
2. CCCCCCCCC[C@@H](O)[C@H](CO)n1cc(-c2cccc(O)c2)nn1: 7.8
3. CCCCCCCCC[C@@H](O)[C@@H](N)CO: 31.2
4. CCCCCCCCC[C@@H](O)[C@H](CO)n1cc(-c2ccccc2)nn1: 62.5
